Second Scan Tm reference
EXPERIMENT_NOTES: Thermal stability of cysteine-NEM conjugates by DSC
Type: physicochemical
APPLIED_CONDITIONS: second identical scan
Description: The thermal stability of cysteine-NEM conjugates was assessed by differential scanning calorimetry (DSC). The only the conjugates tested were those determined to express at high levels, conjugate efficiently, and retain EGFR binding. Additionally, cysteine variants within the BC and FG loops were excluded. Stability data was generated by heating a 400 μL aliquot of the variant from 25° C. to 100° C. at a scan rate of 1° C. per minute in a VP-DSC instrument (MicroCal). […]
Please give a number only; it is taken to be in °C.

Sample records with Second Scan Tm:
molecule="E29C (conjugate, left off: small tags and cut ends) LPAPKNLVVSEVTEDSARLSWDDPWAFYCSFLIQYQESEKVGEAIVLTVPGSERSYDLTGLKPGTEYTVSIYGVHNVYKDTNMRGLPLSAIFTT" endpoint_result=66
molecule="G42C (conjugate, left off: small tags and cut ends) LPAPKNLVVSEVTEDSARLSWDDPWAFYESFLIQYQESEKVCEAIVLTVPGSERSYDLTGLKPGTEYTVSIYGVHNVYKDTNMRGLPLSAIFTT" endpoint_result=67

Look at this molecule and give its reported Second Scan Tm. R54C: cysteine variant of P54AR4-83v2 (SEQ ID NOS: 205 and 243); NEM and VC-MMAF conjugates (conjugate, NEM or vcMMAF conjugate; EGFR binding FN3 domain, NEM and VC-MMAF conjugates) MLPAPKNLVVSEVTEDSARLSWDDPWAFYESFLIQYQESEKVGEAIVLTVPGSECSYDLTGLKPGTEYTVSIYGVHNVYKDTNMRGLPLSAIFTT
65
